Every entry's value here was drawn from patent US20220088148A1.

- study.system: human GCG receptor (human, UniProt P47871 26-477)
- Sequence (P47871 26-477): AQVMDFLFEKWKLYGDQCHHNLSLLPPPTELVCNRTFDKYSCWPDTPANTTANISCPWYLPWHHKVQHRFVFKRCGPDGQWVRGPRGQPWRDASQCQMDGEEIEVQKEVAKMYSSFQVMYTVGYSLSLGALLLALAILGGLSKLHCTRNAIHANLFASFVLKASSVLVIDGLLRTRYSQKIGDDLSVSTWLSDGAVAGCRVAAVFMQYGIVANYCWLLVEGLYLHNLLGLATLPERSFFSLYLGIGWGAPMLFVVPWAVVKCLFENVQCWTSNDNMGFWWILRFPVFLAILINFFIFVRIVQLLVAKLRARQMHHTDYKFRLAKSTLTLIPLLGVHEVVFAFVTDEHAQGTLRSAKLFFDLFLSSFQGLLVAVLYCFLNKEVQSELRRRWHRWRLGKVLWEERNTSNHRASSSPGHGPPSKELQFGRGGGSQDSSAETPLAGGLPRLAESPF
- procedure.details: cell-based or functional assay
Bridges are numbered along the chain shown (N, C = ends). Where no end group is shown, it is not given here. [ ]: non-standard residue; d: D form. The star is where a group is joined. Acetyl(2-(4-imidazolyl)) = O=C(Cc1c[nH]cn1)*; Aib = CC(C)(N)C(=O)O
endpoint.label: In vitro activity (%) vs. Glucagon, cAMP EC50

// solved cases for In vitro activity (%) vs. Glucagon, cAMP EC50 follow
binder="[Acetyl(2-(4-imidazolyl))]GQGTFTSDLSKQMDEERAREFIEWLLAQKPSSGAPPPSHG [triple agonist of SEQ ID NO: 17]" assay_result="< 0.1%"
binder="{Acetyl(2-(4-imidazolyl))}-[Aib]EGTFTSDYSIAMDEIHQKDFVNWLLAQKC (bridge 15-19) [triple agonist of SEQ ID NO: 90]" assay_result="< 0.1%"

Query binder follows.
Lookup result for [Acetyl(2-(4-imidazolyl))]GQGTFTSDLSIQYEEEAQQDFVEWLKDTGPSSGAPPPSHG [triple agonist of SEQ ID NO: 20] ; measured In vitro activity (%) vs. Glucagon, cAMP EC50: < 0.1%
